B1: WEE1 (parent)
chain: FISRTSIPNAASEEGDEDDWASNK

# Variants of: B1
# assayOverview: protein stability index of a GFP-peptide fusion (GPS, HEK-293T) (PSI 1-6); higher = more stable;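 note: lentivirally expressed fusions sorted by FACS into six bins by GFP to DsRed ratio, PSI derived from sequencing read proportions per bin multiplied by bin number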
# testParameters: c terminus: a fixed tail appended
# protein stability index annotations
Keep the answer to the number alone.

Look over these answered cases.
q: Give reported protein stability index value for "P8T"
a: 4.1

q: Give reported protein stability index value for "K24V"
a: 3.58

q: Give reported protein stability index value for "E14H"
a: 3.75

New cases:
q: Give reported protein stability index value for "S6Y"
a: 1.98

q: Give reported protein stability index value for "S6N"
a: 4.53

q: Give reported protein stability index value for "S6H"
a: 3.48

All values here come from the supplement of paper PMC10567573.
